# Assay Explanation: Moisture sorption/desorption studies (hygrostat, storage at different temperatures and relative humidity)
# Format: physicochemical
# Condition Set: Room Temperature, 94% RH, 20 d
Quantity Kind: water content (Table III) (%)

INSERT INTO results (compound, quantity_kind, quantity_unit, number) VALUES
  ('CN1C2CCC1CC(NC(=O)n1c(=O)[nH]c3ccccc31)C2 (stereo not shown) [Compound 1a, reference compound]', 'water content (Table III)', '%', 5.4);

* * *

# Assay Explanation: Moisture sorption/desorption studies (hygrostat, storage at different temperatures and relative humidity)
# Assay type: physicochemical
# Condition Set: Room Temperature, 94% RH, 8 d
Quantity Kind: water content (Table III) (%)

INSERT INTO results (compound, number) VALUES
  ('CN1C2CCC1CC(NC(=O)n1c(=O)[nH]c3ccccc31)C2 (stereo not shown) [Compound 1a, reference compound]', 5.39);

* * *

# Assay Explanation: Moisture sorption/desorption studies (hygrostat, storage at different temperatures and relative humidity)
# Type: physicochemical
# Condition Set: 37° C., 75% RH, 6 h
Quantity Kind: water content (Table III) (%)

INSERT INTO measurements (compound, quantity_kind, number) VALUES
  ('CN1C2CCC1CC(NC(=O)n1c(=O)[nH]c3ccccc31)C2 (stereo not shown) [Compound 1a, reference compound]', 'water content (Table III)', 0.59);

* * *

# Assay Explanation: Moisture sorption/desorption studies (hygrostat, storage at different temperatures and relative humidity)
# Format: physicochemical
# Condition Set: 37° C., 94% RH, 6 h; hydrochloride monohydrate
Where a name gives a salt, the structure may show the parent alone.
Quantity Kind: water content (Table III)

INSERT INTO results (molecule, quantity_kind, result) VALUES
  ('CN1C2CCC1CC(NC(=O)n1c(=O)[nH]c3ccccc31)C2 (stereo not shown) [Compound 2a, hydrochloride monohydrate]', 'water content (Table III)', '5.53%');

* * *

# Assay Explanation: Moisture sorption/desorption studies (hygrostat, storage at different temperatures and relative humidity)
# Type: physicochemical
# Condition Set: Room Temperature, 94% RH, 2 h
Quantity Kind: water content (Table III) (%)

INSERT INTO measurements (molecule, number) VALUES
  ('CN1C2CCC1CC(NC(=O)n1c(=O)[nH]c3ccccc31)C2 (stereo not shown) [Compound 1a, reference compound]', 1.28);

* * *

# Assay Explanation: Moisture sorption/desorption studies (hygrostat, storage at different temperatures and relative humidity)
# Format: physicochemical
# Condition Set: 37° C., 75% RH, 2 h; hydrochloride monohydrate
# Protocol: The determination of the sorption isotherms was carried out in a hygrostat. At suitable intervals, the sample was weighed by means of a sample balance. The atmosphere in the hygrostat and therefore around the sample of compound 1a (1b) and 2a (2b) was conditioned and kept by a saturated solutions of a suitable salt: Na Cl saturated solution 75.3% RH/25° C. 74.8% RH/37° C. KNO3 saturated solution 93.7% RH/25° C. 90.0% RH/37° C. […]
Where a name gives a salt, the structure may show the parent alone.
Quantity Kind: water content (Table III) (%)

INSERT INTO assay_data (compound, number) VALUES
  ('CN1C2CCC1CC(NC(=O)n1c(=O)[nH]c3ccccc31)C2 (stereo not shown) [Compound 2a, hydrochloride monohydrate]', 5.8);

* * *

# Assay Explanation: Moisture sorption/desorption studies (hygrostat, storage at different temperatures and relative humidity)
# Type: physicochemical
# Condition Set: Room Temperature, 94% RH, 4 d; hydrochloride monohydrate
Structures can show the parent of a compound that is named as a salt.
Quantity Kind: water content (Table III) (%)

INSERT INTO results (compound, quantity_kind, number) VALUES
  ('CN1C2CCC1CC(NC(=O)n1c(=O)[nH]c3ccccc31)C2 (stereo not shown) [Compound 2a, hydrochloride monohydrate]', 'water content (Table III)', 5.44);

Hello, the source for this data is patent US5468758A, in case you need it.
